The reported measurements were obtained from PubChem BioAssay (NCI).

system: K-562 leukemia; assay: NCI tumour cell line growth inhibition, 48 h

compound | tgt | TGI
CC[C@@]1(O)C(=O)OCc2c1cc1n(c2=O)Cc2cc3c(OC)cccc3nc2-1 | K-562 leukemia | 17.8 µM
O=c1[nH]ncc2[nH]c(-c3ccccc3)cc12 | K-562 leukemia | > 100 µM
Cc1ccc(NC(=O)C23CC4CC(CC(C4)C2)C3)c(C(=O)NNC(=O)c2ccc(Cl)cc2)c1 | K-562 leukemia | 95 µM
CNC(=S)N/N=C(\C)c1cc(OC)c(OC)cc1O | K-562 leukemia | > 100 µM
O=C(Nn1c(-c2ccccc2)nc2ccccc2c1=O)c1ccc([N+](=O)[O-])cc1 | K-562 leukemia | > 100 µM
Cc1cc(C)c2c(=O)cc(-c3ccc(F)cc3)[nH]c2n1 | K-562 leukemia | > 100 µM
CC(=O)OC12c3ccccc3C(c3ccccc31)C1C(=O)N(Nc3ccccc3)C(=O)C12 (configuration not stated) | K-562 leukemia | > 100 µM
CC(=O)N[C@@H](Cc1ccc(OP(=O)(O)O)cc1)C(=O)N[C@H]1CCC(=O)N2CCC[C@@H](C(=O)NCc3cccc4ccccc34)N2C1=O | K-562 leukemia | > 25 µM
CCCC(c1cc(C(C)(C)C)c(O)cc1C)c1cc(C(C)(C)C)c(O)cc1C | K-562 leukemia | 6.43 µM
Clc1ccc(Nc2ncnc3ccccc23)cc1 | K-562 leukemia | > 100 µM
CNC(=O)N(CCCC(NC(C)=O)C(=O)NCc1ccccc1)Cc1ccccc1 (configuration not stated) | K-562 leukemia | > 100 µM
O=C1C2=C(c3ccccc31)C(c1ccccc1Cl)NC(=S)N2 (configuration not stated) | K-562 leukemia | > 100 µM
NNC(=S)N/N=C/c1ccccn1 | K-562 leukemia | > 100 µM
O=C(O)c1cc(C(=O)C(=O)c2cc(C(=O)O)c(O)c3ccccc23)c2ccccc2c1O | K-562 leukemia | > 100 µM
CCN(CC)CCC1CCCCN1CC(=O)N1c2ccccc2NC(=O)CC1C (configuration not stated) | K-562 leukemia | > 100 µM
OCC(O)COc1ccc(F)cc1 (configuration not stated) | K-562 leukemia | > 100 µM
Cc1cc2c(=O)cc(-c3ccc(Cl)c(Cl)c3)oc2c(C(=O)O)c1C | K-562 leukemia | > 100 µM
COC(=O)c1oc([N+](=O)[O-])c(-c2ccccc2)c1-c1ccccc1 | K-562 leukemia | > 100 µM
Cc1nn(C(=O)c2ccc(Cl)cc2)c2c1C(c1ccccc1)SC(N)=N2 (configuration not stated) | K-562 leukemia | > 10 µM
CCOC(=O)c1sc(Nc2cc(Cl)ccc2Cl)nc1C | K-562 leukemia | > 100 µM
CCN1C2=C(SC(=S)C1=C1SC(C(=O)c3ccccc3)=C(C(=O)c3ccccc3)S1)SC(=Nc1ccccc1)C2=O | K-562 leukemia | > 100 µM
S=c1sc2sc(=S)sc2s1 | K-562 leukemia | > 100 µM

* * *

system: OVCAR-8 ovarian; assay: NCI tumour cell line growth inhibition, 48 h

compound | GI50
CC(=O)N[C@@H](Cc1ccc(OP(=O)(O)O)cc1)C(=O)N[C@H]1CCC(=O)N2CCC[C@@H](C(=O)NCc3cccc4ccccc34)N2C1=O | > 25000 nM
O=C1NC(=N[C@@H]2C[C@H]2c2ccccc2)S/C1=C\c1ccc2ncccc2c1 | 2050 nM
CN(CCNc1ccc(C(=N)N)cc1)c1ccc(C(=N)N)cc1 | 50000 nM
COc1c(O)cc2c(c1CC=C(C)C)OC(=O)c1c(cc(O)c(CC=C(C)C)c1O)O2 | 4470 nM
COc1cc2cc(Oc3ccc(NC(=O)Nc4ccc(F)c(C(F)(F)F)c4)cc3)c(C)nc2cc1OCCN1CCOCC1 | 2730 nM
O=C(O)c1ccc(NCn2nc(-c3ccccc3O)oc2=S)cc1O | > 100000 nM
N#C/C(=C\c1ccc([N+](=O)[O-])cc1)n1nnc2cc(F)c(F)cc21 | 2140 nM
O=C1/C(=C\c2ccc(Cl)cc2)CN(C(=O)c2ccccc2)C/C1=C\c1ccc(Cl)cc1 | 3410 nM
Cc1ccc([I+]c2ccc(C)cc2)cc1 | 2200 nM
CCN1C2=C(SC(=S)C1=C1SC(C(=O)c3ccccc3)=C(C(=O)c3ccccc3)S1)SC(=Nc1ccccc1)C2=O | 2340 nM
CC12OC(C(=O)C13CC3)C1C(=O)c3cccc(O)c3C(=O)C12 (configuration not stated) | 8120 nM
COC(=O)Nc1nc2ccc(C(=O)C3CC3)cc2[nH]1 | 668 nM
